Field: TGI. Provide a value for each of the compounds that follow.
System: RXF 393 renal
Experiment: NCI tumour cell line growth inhibition, 48 h
# number only, unit µM dropped from output

Task: Could you please provide reported TGI for CN(C)CCNC(=O)c1cccc2c1Oc1c(cccc1[N+](=O)[O-])O2 ? Thanks!
Output: 4.94

Task: Dear colleague, please send me the reported TGI for CC(=O)O[C@H]1CC[C@@]2(C)C(=CC[C@@H]3C2CC[C@]2(C)Nc4nc5ccccc5cc4CC32)C1 (stereo not given in full) when you can.
Output: 5.09

Task: Look up and report measured TGI for this entry: O=C1NC(=NCCCc2ccccc2)S/C1=C\c1ccc2ncccc2c1
Output: 10.4

Task: Please supply the value of reported TGI for the item CCOC(=O)c1cnc2c(C)cccc2c1Nc1ccc(C(C)=O)cc1
Output: 63.8

Task: State, in one line, measured TGI of COc1cc2nc3cc([N+](=O)[O-])ccc3c(NCCNCC(C)(C)O)c2cc1OC
Output: 2.87

Task: For the compound CCC(=O)c1c(C(F)(F)F)n([O-])c2cc(F)c(F)cc2[n+]1=O , give its measured TGI value.
Output: 3.25
